# experimental.system: human ether-à-go-go-related gene (hERG) potassium channel (human);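 also: peak tail current of the secondary pulse compared with the same well before compound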
# method.summary: primary screen, population patch clamp on CHO cells stably expressing hERG; higher = less effect of the substance
Among all 310,000 compounds or so, about 14,000 (4.5%) showed an effect of 50% or more. Effects have a minus sign here. The sample as a whole holds a higher share of strong results than the screen did.
measured.metric: hERG current change (%, negative = inhibition) at 10uM (%)
Write the answer as a number in %, unit excluded.

In the examples that follow, each entry is paired with its recorded hERG current change (%, negative = inhibition) at 10uM.
molecule=CC(C)Oc1ccc(OCCn2c(S(=O)(=O)O)nc3c(N)ncnc32)cc1 measure_unit=% test_value=15.9
molecule=Cc1cc(N2CCN(c3nc(-c4ccccc4)cs3)CC2)c2ccccc2n1 measure_unit=% test_value=-23.3
molecule=Cc1cccc2cc(CN(Cc3ccccc3)C(=O)N(C)C)c(=O)[nH]c12 measure_unit=% test_value=-11.5
molecule=Cc1cc(N2CCOCC2)n2nc(-c3cccc(F)c3)cc2n1 measure_unit=% test_value=0.119
molecule="CC1CN(c2nc3ccccc3cc2-c2ccccc2)CC(C)O1 (centres unmarked)" measure_unit=% test_value=-1.86

# query: hERG current change (%, negative = inhibition) at 10uM of entry "Cc1cc(N2CCN(c3ccccc3Cl)CC2)n2cc(-c3ccccc3)nc2n1"
-53.9

# query: hERG current change (%, negative = inhibition) at 10uM of entry "Cc1cc(N2CCCCC2)n2nc(C)c(-c3ccccc3)c2n1"
13.3

# query: hERG current change (%, negative = inhibition) at 10uM of entry "CN1CCN(c2cc(-c3ccccc3)nc3cc(-c4ccc(F)cc4)nn23)CC1"
-14.5

* * *

# experimental.system: human ether-à-go-go-related gene (hERG) potassium channel (human, UniProt Q12809);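 also: peak tail current of the secondary pulse compared with the same well before compound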
# Sequence (Q12809 whole entry, looked up): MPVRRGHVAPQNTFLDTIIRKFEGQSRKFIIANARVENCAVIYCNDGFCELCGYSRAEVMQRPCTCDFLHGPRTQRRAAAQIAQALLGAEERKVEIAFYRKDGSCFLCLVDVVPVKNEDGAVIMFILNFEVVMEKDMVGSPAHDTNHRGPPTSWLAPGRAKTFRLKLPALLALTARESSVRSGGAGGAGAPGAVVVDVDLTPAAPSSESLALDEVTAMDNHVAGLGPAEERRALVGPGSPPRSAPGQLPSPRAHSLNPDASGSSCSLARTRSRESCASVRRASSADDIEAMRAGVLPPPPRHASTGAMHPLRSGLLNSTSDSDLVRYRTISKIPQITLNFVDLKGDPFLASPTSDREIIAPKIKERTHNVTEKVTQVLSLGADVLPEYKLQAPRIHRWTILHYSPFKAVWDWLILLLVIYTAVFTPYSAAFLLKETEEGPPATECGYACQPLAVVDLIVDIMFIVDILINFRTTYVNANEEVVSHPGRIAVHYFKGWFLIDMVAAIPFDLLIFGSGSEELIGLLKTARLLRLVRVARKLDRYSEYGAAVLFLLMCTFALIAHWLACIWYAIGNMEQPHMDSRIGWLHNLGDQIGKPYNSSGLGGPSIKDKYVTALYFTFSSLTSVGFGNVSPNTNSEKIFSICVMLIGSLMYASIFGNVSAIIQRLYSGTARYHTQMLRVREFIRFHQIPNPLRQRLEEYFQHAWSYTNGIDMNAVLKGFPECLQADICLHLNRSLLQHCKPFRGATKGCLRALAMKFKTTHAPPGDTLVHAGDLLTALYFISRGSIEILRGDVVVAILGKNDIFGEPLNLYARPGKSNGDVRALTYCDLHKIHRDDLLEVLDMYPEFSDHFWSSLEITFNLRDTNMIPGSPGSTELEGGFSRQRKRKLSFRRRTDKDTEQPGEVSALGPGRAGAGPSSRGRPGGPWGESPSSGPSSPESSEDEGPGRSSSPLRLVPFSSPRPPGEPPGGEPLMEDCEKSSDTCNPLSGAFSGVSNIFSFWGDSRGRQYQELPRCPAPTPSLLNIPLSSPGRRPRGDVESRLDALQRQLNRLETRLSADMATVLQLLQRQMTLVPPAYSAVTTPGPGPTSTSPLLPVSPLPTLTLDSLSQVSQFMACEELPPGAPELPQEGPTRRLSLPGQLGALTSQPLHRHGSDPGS
# method.summary: primary screen, population patch clamp on CHO cells stably expressing hERG; higher = less effect of the substance
The whole screen tested about 310,000 compounds, of which about 14,000 (4.5%) showed an effect of 50% or more. The effect is printed as a negative number. Shown is part of a subset that was picked to be rich in strong results.
Label criterion met when hERG current change (%, negative = inhibition) at 10uM is at or above -20%; anything below gets criterion not met.

compound="Cc1cc(Br)ccc1NC(=O)C(C)c1ccc([N+](=O)[O-])cc1 (stereo not shown)" assigned_category="criterion not met"
compound="COc1ccc(NC2(c3ccccc3)OC(=O)c3ccccc32)cc1 (stereo not shown)" assigned_category="criterion met"
compound="CCOc1ccc(Br)cc1C1C(C(=O)OC)=C(N)Oc2cc(N(C)C)ccc21 (stereo not shown)" assigned_category="criterion met"
compound="CC[N+](C)(CC)CC(O)COCC1COc2ccccc2O1.[I-] (stereo not shown)" assigned_category="criterion met"
compound=Cc1ccnc(NC(=O)Cc2ccc([N+](=O)[O-])cc2)c1 assigned_category="criterion met"
compound=COc1ccc(-c2nc3ccccc3n2OCC(=O)O)cc1 assigned_category="criterion met"

Hi, just wondering whether O=C(C1COc2ccccc2O1)N1CCN(c2ccccc2F)CC1 (stereo not shown) shows hERG current change (%, negative = inhibition) at 10uM of -20% or higher.
criterion met

Hi, just wondering whether Cl.OC(COCC1COc2ccccc2O1)CN1CCN(c2ccccc2)CC1 (stereo not shown) shows hERG current change (%, negative = inhibition) at 10uM of -20% or higher.
criterion not met

Hi, just wondering whether "CCOC(=O)N1CCC(N(CCN(C)C)C(=S)Nc2ccccc2OC)CC1" shows hERG current change (%, negative = inhibition) at 10uM of -20% or higher.
criterion met

Hi, just wondering whether "O=C(O)c1ccc2c(c1)S(=O)(=O)c1ccccc1C2=O" shows hERG current change (%, negative = inhibition) at 10uM of -20% or higher.
criterion met

Hi, just wondering whether "COc1ccc(C(=O)N/C(=C\c2ccco2)C(=O)NCc2cccnc2)cc1" shows hERG current change (%, negative = inhibition) at 10uM of -20% or higher.
criterion not met

Hi, just wondering whether CCN1CCN(CC(O)COCC2COc3ccccc3O2)CC1.Cl (stereo not shown) shows hERG current change (%, negative = inhibition) at 10uM of -20% or higher.
criterion met

Hi, just wondering whether COC(=O)CN1C(c2ccc(Cl)cc2)=Nc2ccc(Cl)cc2C1c1ccccc1 (stereo not shown) shows hERG current change (%, negative = inhibition) at 10uM of -20% or higher.
criterion met

Hi, just wondering whether "C=CCn1c(O)c(C(CC)=Nc2ccc3c(c2)CCC3)c(=O)[nH]c1=O" shows hERG current change (%, negative = inhibition) at 10uM of -20% or higher.
criterion met

Hi, just wondering whether "CCn1c(-c2ccco2)n[nH]c1=S" shows hERG current change (%, negative = inhibition) at 10uM of -20% or higher.
criterion met

Hi, just wondering whether NNC(=O)CN1C(c2ccc(Cl)cc2)=Nc2ccc(Br)cc2C1c1ccccc1 (stereo not shown) shows hERG current change (%, negative = inhibition) at 10uM of -20% or higher.
criterion not met

Hi, just wondering whether "O=C(COc1ncnc2ccccc12)NCCc1ccc(F)cc1" shows hERG current change (%, negative = inhibition) at 10uM of -20% or higher.
criterion met

Hi, just wondering whether Cl.OCCN1CCN(CC(O)COCC2COc3ccccc3O2)CC1 (stereo not shown) shows hERG current change (%, negative = inhibition) at 10uM of -20% or higher.
criterion met

Hi, just wondering whether NNC(=O)CN1C(c2ccc(Br)cc2)=Nc2ccc(Br)cc2C1c1ccccc1 (stereo not shown) shows hERG current change (%, negative = inhibition) at 10uM of -20% or higher.
criterion not met

Hi, just wondering whether "COc1ccc(C(=O)N/C(=C/c2ccco2)C(=O)NCc2ccco2)cc1" shows hERG current change (%, negative = inhibition) at 10uM of -20% or higher.
criterion not met

Hi, just wondering whether COC(=O)C1=C(N)Oc2cc(C)[nH]c(=O)c2C1c1ccccc1OC (stereo not shown) shows hERG current change (%, negative = inhibition) at 10uM of -20% or higher.
criterion met

Hi, just wondering whether "COc1ccc(CCN2CC(O)=C(c3nc(C)cs3)C2=N)cc1OC" shows hERG current change (%, negative = inhibition) at 10uM of -20% or higher.
criterion not met

Hi, just wondering whether "CN1CCN(C(=O)CCCOc2cc(=O)n(C)c3ccccc23)CC1" shows hERG current change (%, negative = inhibition) at 10uM of -20% or higher.
criterion met

Hi, just wondering whether "Cc1ccc(C(=O)N/C(=C/c2ccco2)C(=O)NCc2ccco2)cc1" shows hERG current change (%, negative = inhibition) at 10uM of -20% or higher.
criterion met

Hi, just wondering whether C[N+]1(CC(O)COCC2COc3ccccc3O2)CCOCC1.[I-] (stereo not shown) shows hERG current change (%, negative = inhibition) at 10uM of -20% or higher.
criterion met

Hi, just wondering whether COc1ccc(OC)c(N(CC(=O)NCC2CCCO2)S(=O)(=O)c2ccccc2)c1 (stereo not shown) shows hERG current change (%, negative = inhibition) at 10uM of -20% or higher.
criterion met

Hi, just wondering whether "COC(=O)c1sc2ncn(-n3c(C)ccc3C)c(=O)c2c1C" shows hERG current change (%, negative = inhibition) at 10uM of -20% or higher.
criterion met

Hi, just wondering whether CC(=O)C1=C(O)C(=O)N(c2cccc(Br)c2)C1c1ccccc1Cl (stereo not shown) shows hERG current change (%, negative = inhibition) at 10uM of -20% or higher.
criterion met

Hi, just wondering whether COC(=O)CN1C(c2ccccc2)=Nc2ccc(Cl)cc2C1c1ccccc1 (stereo not shown) shows hERG current change (%, negative = inhibition) at 10uM of -20% or higher.
criterion not met

Hi, just wondering whether CC(c1ccccc1)N1C(=O)c2ccc(C(=O)NCc3cccnc3)cc2C1=O (stereo not shown) shows hERG current change (%, negative = inhibition) at 10uM of -20% or higher.
criterion met

Hi, just wondering whether "O=C(NCc1ccco1)/C(=C/c1ccco1)NC(=O)c1ccccc1" shows hERG current change (%, negative = inhibition) at 10uM of -20% or higher.
criterion met
